Target: Lysosomal acid glucosylceramidase (Homo sapiens) (UniProt P04062)
Sequence (P04062 whole entry, looked up): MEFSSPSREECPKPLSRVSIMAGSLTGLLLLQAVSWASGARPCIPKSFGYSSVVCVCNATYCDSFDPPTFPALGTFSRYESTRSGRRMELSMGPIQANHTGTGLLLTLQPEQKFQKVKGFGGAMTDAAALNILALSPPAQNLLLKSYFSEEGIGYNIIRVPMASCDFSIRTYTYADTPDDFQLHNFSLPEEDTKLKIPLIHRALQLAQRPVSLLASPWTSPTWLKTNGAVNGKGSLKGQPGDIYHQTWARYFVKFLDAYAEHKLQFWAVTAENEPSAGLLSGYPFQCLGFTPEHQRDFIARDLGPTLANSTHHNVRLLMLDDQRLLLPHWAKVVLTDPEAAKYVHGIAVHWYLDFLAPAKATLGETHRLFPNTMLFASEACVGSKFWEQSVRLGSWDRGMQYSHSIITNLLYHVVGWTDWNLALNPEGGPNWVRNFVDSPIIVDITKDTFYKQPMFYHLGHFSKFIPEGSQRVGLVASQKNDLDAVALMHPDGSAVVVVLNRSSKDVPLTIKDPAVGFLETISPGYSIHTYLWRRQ
Experiment: qHTS Assay for Inhibitors and Activators of N370S glucocerebrosidase as a Potential Chaperone Treatment of Gaucher Disease: Activity in Non-Mutant Spleen Homogenate
Settings: human spleen homogenate GC, 4MU-glucoside fluorescence; series mostly up to 57.5 µM
Results filed as inconclusive are left out. Activity calls are given as the source filed them. Calls come from the whole dose curve; as a rule, active = well fitted inhibition curve with a large enough effect; inconclusive = small, poorly fitted or top-dose-only effect, or effect the other way; inactive = flat fitted curve, though single readings scatter.
Answer with one of the outcomes given here: y = active, n = inactive

Answered cases to consult:
>>> class_assignment("NS(=O)(=O)c1ccc(S(=O)(=O)N2CCN(c3nc(-c4cccs4)nc4ccccc34)CC2)cc1")
"y"
>>> class_assignment("Cc1cc(C)cc(N(CC(=O)NC2CCCCCC2)S(=O)(=O)c2c(C)[nH]c(=O)[nH]c2=O)c1")
"y"
>>> class_assignment("S=C(NCCCc1cnc[nH]1)NCCCN(Cc1ccc(Cl)c(Cl)c1)c1ccc(Br)cn1")
"y"
>>> class_assignment("CC(C)C(C)NC(=O)CSc1nc2scc(-c3ccco3)c2c(=O)n1-c1ccccc1 (stereo unspecified)")
"n"
>>> class_assignment("O=S(=O)(c1ccccc1C(F)(F)F)N1CCN(c2nc(-c3cccs3)nc3ccccc23)CC1")
"y"

In: Lab log entry: "CC(C)(C)C(=O)OCCNc1nc(-c2ccccc2)nc2ccccc12" — outcome as called in the assay?
Out: y
